biological target: CRTH2 (Homo sapiens, UniProt Q9Y5Y4); construct: endogenous in cells; host or cells: eosinophils in human whole blood; experiment: Human whole blood CD11b antagonist assay (CD11b expression in eosinophils challenged with 15-R-methyl-PGD2); type: cell-based; settings: 37° C. 10 minutes preincubation, agonist 15R-Methyl-PGD2 10 nM, eosinophils gated by flow cytometry
Sequence (Q9Y5Y4 whole entry): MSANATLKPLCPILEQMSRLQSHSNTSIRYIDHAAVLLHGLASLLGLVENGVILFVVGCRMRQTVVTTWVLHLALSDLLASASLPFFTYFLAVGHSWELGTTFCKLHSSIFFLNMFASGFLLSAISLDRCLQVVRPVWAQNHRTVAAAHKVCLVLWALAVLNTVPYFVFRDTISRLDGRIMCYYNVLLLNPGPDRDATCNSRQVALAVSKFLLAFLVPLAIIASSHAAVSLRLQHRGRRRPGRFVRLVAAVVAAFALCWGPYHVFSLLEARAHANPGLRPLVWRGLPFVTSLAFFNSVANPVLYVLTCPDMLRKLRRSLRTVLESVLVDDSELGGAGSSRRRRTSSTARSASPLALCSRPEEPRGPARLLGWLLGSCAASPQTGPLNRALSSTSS
Readout Type: IC50

Form field IC50 for item Cc1c(Cc2ccccc2S(=O)(=O)N2CCCC2)c2c(n1CC(=O)O)CC(C)(C)C/C2=N\OC(C)(C)C on CRTH2 (Homo sapiens, UniProt Q9Y5Y4): 100 to 500 nM

Noted IC50 for Cc1ccc(S(=O)(=O)c2ncccc2Cc2c3c(n(CC(=O)O)c2C)CC(C)(C)CC3=O)cc1 , tested on CRTH2 (Homo sapiens, UniProt Q9Y5Y4): 5 to 20 nM

Reading of IC50 for Cc1c(Cc2ccccc2NS(=O)(=O)c2ccc(C(C)C)cc2)c2c(n1CC(=O)O)CC(C)(C)CC2=O with CRTH2 (Homo sapiens, UniProt Q9Y5Y4): 20 to 100 nM

Reported CRTH2 (Homo sapiens, UniProt Q9Y5Y4) IC50 for item Cc1ccc(S(=O)(=O)N(C)c2cccc(Cc3c4c(n(CC(=O)O)c3C)CC(C)(C)CC4=O)c2)cc1 was > 3000 nM

# IC50 measured on CRTH2 (Homo sapiens, UniProt Q9Y5Y4) for item Cc1c(Cc2cccnc2S(=O)(=O)c2ccc(C(F)(F)F)cc2)c2c(n1CC(=O)O)CC(C)(C)CC2=O = 500 to 3000 nM

Test item Cc1c(Cc2ccccc2NS(=O)(=O)c2ccc(C(F)(F)F)cc2)c2c(n1CC(=O)O)CC(C)(C)CC2=O ; CRTH2 (Homo sapiens, UniProt Q9Y5Y4); reported IC50 was 20 to 100 nM
